System: MS2 coat protein
Test: apparent KD of MS2 coat protein; designed switch direction (-1 OFF switch, 1 ON switch): -1; higher = weaker reporter binding
Conditions: input ligand: none
measurementKind: apparent KD of MS2 coat protein (µM)
The answer is to be given in µM; state only the numeric part.

Look up and state reported apparent KD of MS2 coat protein for GGUCGGGCAAAGGAUGCCCACAUGAGGAUCACCCAUGUACAAGACUUUAAGGUGCGUAAGCGCAUACGGCUCGUUAA [Eternabot (L1) Solution 26] (Eterna round: R97, puzzle: Sensor, turn-off variant 1)
0.0165

In one line, give reported apparent KD of MS2 coat protein of the entry AAUUAAUAUCAGGAUAUGACGUGCUGCGGCACGUCAGAAGGGAUGACAUGAGGAUCACCCAUGUGAUCAAUUAA [E6/1-A3] (Eterna round: R97, puzzle: Exclusion 6) .
0.0221

Quote apparent KD of MS2 coat protein reported for ACCUUACUGGUCAGGAUAUACAGUCUUUGGUGUGUGUAGAAGGGACAUGAGGAUCACCCAUGUAGGUUGCUUUA [alecazam62] (Eterna round: R97, puzzle: Brourd's mod of Exclusion 4) please.
0.141

For the sequence UCCGGACAUGAGGAUCACCCAUGUGAGGAUAUUGUCGACACGACUGAAAGGAUCACGGCGAGAAGGCGCUUGGA [Eternabot (L2) Solution 48] (Eterna round: R97, puzzle: Exclusion 1) , report apparent KD of MS2 coat protein.
0.0216

Specify reported apparent KD of MS2 coat protein for the sequence shown: UAAGUGUCAGGAUAUACAUGAGGAUCACCCAUGUGCCUCGCUACGGCCAGGCUCCCGUGUAGAAGGGAUCGUAA [Eternabot (Original) Solution 23] (Eterna round: R97, puzzle: Exclusion 3)
0.0618

Please give the documented apparent KD of MS2 coat protein of AGCCCUGCAGGAUAUGCCCGGGAUAACAUGAGGAUCACCCAUGUGACCGAUUGUUAAUCUGCAGAAGGGCAUGGGA [JL-EX5-4.18 ViennaUCT mod] (Eterna round: R97, puzzle: Exclusion 5)
0.563

Fill in apparent KD of MS2 coat protein for record UCGGAUUCAGGAUAUUGCACAUGUGACAUGAGGAUCACCCAUGUUCCCUUAUUUGGUCACCAAGAAGGGAGUUUAU [Eternabot (L2) Solution 34] (Eterna round: R97, puzzle: Exclusion 5)
0.152

Dear colleague, please send me the reported apparent KD of MS2 coat protein for UUCCUCACUUCUUUGUCUCACAUGAGGAUCACCCAUGUAAUAUAGGAUAUGCAUAGUAUUUCUAUGCAGAAGGAUAUUAGUUUU [JR_ExcNG3_Sub087] (Eterna round: R96, puzzle: Exclusion NG 3) when you can.
0.0347

Please indicate apparent KD of MS2 coat protein recorded for AGAGUGCUGCGAGGAUAUACAUGAGGAUCACCCAUGUAAUCGUCUGAGGCAAAGCCUCAGACGAAGUAGAAGGCGCAGUACUCA [Mat - Exclusion NG 2 - Mod of JL - D27] (Eterna round: R96, puzzle: Exclusion NG 2)
0.0179

Name the recorded apparent KD of MS2 coat protein of the item GCAAGCUUUUUCAAUAACAACAUGAGGAUCACCCAUGUUUAAGCUAUUACUUUUGGGCUCUUUAGUGCUAGUCUUAU [JR_STOV1_Sub037] (Eterna round: R97, puzzle: Sensor, turn-off variant 1) in your answer.
0.0177

Fill in reported apparent KD of MS2 coat protein for this entry: ACAUGAGGAUCACCCAUGUCCGGCUGGUCUGUCUCGGCUGUCGAGGAUAUAGCACGGUAUCCGCGCUAGAAGGCGGGAGCCGGC [Aenatbe mod 89] (Eterna round: R96, puzzle: Exclusion NG 3)
0.0474

Please list apparent KD of MS2 coat protein recorded for the sequence AGUUGGCGAGGAUAUACAUGAGGAUCACCCAUGUGGGAGAUACUAGUGAGGUCGAUUAGUAGAAGGCGCUGACA [Mat X3R4 m8] (Eterna round: R97, puzzle: Exclusion 3)
0.209

Hello, please tell me recorded apparent KD of MS2 coat protein for this one: CAGGAUAGAGGAUAUACAUAGAUACAGAUUCGUGUGAUCCUACAUGAGGAUCACCCAUGUAGAAGGCUAUCCUG [Fiskers Ex 2 - 23] (Eterna round: R96, puzzle: Exclusion 2)
0.587

Supply recorded apparent KD of MS2 coat protein for CACCGUUAGUGAGGAUAUCGUACAUGAGGAUCACCCAUGUAAUAAAUGAGAAUUUCGGAUGUAUGCGAGAAGGCACAAAUCGGC [Ostracism 40 - Jieux - Exclusion NG 2] (Eterna round: R96, puzzle: Exclusion NG 2) here.
0.0452

---

For each of the sequences below, state its apparent KD of MS2 coat protein.
Test system: MS2 coat protein
Test: apparent KD of MS2 coat protein; designed switch direction (-1 OFF switch, 1 ON switch): 1; higher = weaker reporter binding
Conditions: input ligand: microRNA oligo, concentration not stated
// return numeric value only (unit: nM, not printed)

Please report the measured apparent KD of MS2 coat protein for UACAAUCUAUCUGAGGAUAUCAUGAAAAAAACAUGAGGAUCACCCAUGUGCAGGAAAACUGCAUAUGAGAAGGCAGAUAGAUUGG [salish99_SS2_r3_007] (Eterna round: R96, puzzle: Same State 2)
505

Provide apparent KD of MS2 coat protein value for the following sequence: UGGUACAUGGGAGGAUAUCAUGUAGAAACAUGAGGAUCACCCAUGUAGAUGGCCGGUAACCGGAAUGAGAAGGCCCAUGUACCU [JL SSNG1 3.63] (Eterna round: R96, puzzle: Same State NG 2)
18.9

Report apparent KD of MS2 coat protein, nothing else, for this sequence: UUAACAUGAGGAUCACCCAUGUAUGCGUAGCUUGCAUUUUGACAGGAUAUUGAAUAUCUAUAUAGCAAGAAGGGUCGUUAGUCU [JR_SSNG3_Sub008] (Eterna round: R96, puzzle: Same State NG 3)
53.3

State its apparent KD of MS2 coat protein for this sequence: GCCGGCUGGUGAGGAUAUGGCGCCUUGUUGGUGCCAGAAGGCAUGUCUAUUGACAUGAGGAUCACCCAUGUGUUGUCGUUGGCG [salish99_SSNG1_r04_612] (Eterna round: R96, puzzle: Same State NG 1)
108

State, in one line, measured apparent KD of MS2 coat protein of GUAGCAUACCGAGGAUAUUCAUAUACAUGAGGAUCACCCAUGUUAAAUAAUAGGCGAAAGCCUUGGGAGAAGGCGGAAUGCUAC [Xeonanis - 20 Mod70] (Eterna round: R96, puzzle: Same State NG 2)
9.72

---

So I've got a bunch of sequences here, and I need their apparent KD of MS2 coat protein values.
Test system: MS2 coat protein
Assay: apparent KD of MS2 coat protein; designed switch direction (-1 OFF switch, 1 ON switch): -1; higher = weaker reporter binding
Conditions: Eterna round: R95; input ligand: microRNA oligo, concentration not stated

Determine its reported apparent KD of MS2 coat protein: AAGGACUGAGGAUAUGCGCGGGCAAGAUCCUCAAUCCCAAAACAUGAGGAUCACCCAUGUAGAAGGCAGAAAUA [Tereenrion] (puzzle: Exclusion 2)
0.0234 µM

Return the recorded apparent KD of MS2 coat protein value; entry: GAUUAUGCGAGCUUUAGGGACAUGAGGAUCACCCAUGUUCGUCUUAUUGGUCUAGAUGCACUAACAUACCUAAAUCU [JMF 26] (puzzle: Sensor v3, turn-off variant 1)
0.0244 µM

Look up apparent KD of MS2 coat protein of CCCUCACAUGAGGAUCACCCAUGUCAGGAUAUUCGAACGGUGUGUUUUUGGCCAGUUGGAAGAAGGGACAUAAA [Riinesbe] (puzzle: Exclusion 1) and report it.
0.0362 µM

// Input: CUAGACCGAGGAUAUAUUAUGUGAAACAUGAGGAUCACCCAUGUAAUAUGAUGGAUGUAAAUAGAAGGCGGUCUAG [Mat - Exclusion 5 - JL mod - D29] (puzzle: Exclusion 5) . Output its apparent KD of MS2 coat protein only.
0.0534 µM

Please give measured apparent KD of MS2 coat protein of the following entry: CCCUCACAUGAGGAUCACCCAUGUCAGGAUAUUCGAGGCGCAAAUACGCCAAAUGCAGGAAGAAGGGACGUGCC [Ususzalaxe] (puzzle: Exclusion 1)
0.0135 µM

Note apparent KD of MS2 coat protein for the sequence shown: GGUGCUGGCGCGUCGGUGUUGGUGCAAUAAGCUUGUGAAACAUGAGGAUCACCCAUGUCCUCAUAAGCUCGUCUUAU [salish99_TOv2_r2_086] (puzzle: Sensor v3, turn-off variant 2)
0.529 µM

Return reported apparent KD of MS2 coat protein. Input sequence: GGAAAGGUAGGAUAUACGAAGAAAAAGGGUAGAAGAAUAACACAUGAGGAUCACCCAUGUAGAAGGACCAAAGC [Mat - Exclusion 2 - Mod of my Tesla design - D14] (puzzle: Exclusion 2)
0.0251 µM

Indicate the recorded apparent KD of MS2 coat protein value for this sequence: CUGAGGUAGCGGUCCUAUGACAUGAGGAUCACCCAUGUGCCUCGCUACAAGCUUUUUGCUCGUUUUAUGAUUCUCGG [JL Atriat mod 11] (puzzle: Sensor v3, turn-off variant 1)
0.0901 µM

Where do the numbers come from? From the supplement of paper PMC9170038.
